Target: Glutamate NMDA receptor
Assay: Antagonist activity at NMDA receptor in cerebellar granule neurons assessed as inhibition of glutamate-induced increase in intracellular calcium concentration by fluorometric assay
Format: functional, cell-based
pIC50: −log10 of the molar value.
quantity kind: pIC50

CC12CC3CC1(C)CC3(N)C2: 3.56
CNC12CC3CC(CC1C3)C2: 3.69
NC(N)=NCC12CC3CC(CC1C3)C2: 3.34

###

Target: Glutamate NMDA receptor
Assay: Antagonist activity at NMDA receptor in cerebellar granule neurons assessed as inhibition of glutamate-induced increase in intracellular calcium concentration by fluorometric assay
Format: functional, cell-based
pIC50: −log10 of the molar value.
quantity kind: pIC50

CC(N)C12CC3(C)CC1CC3(C)C2 (centres undefined): 4.03
CC12CC3CC1(C)CC3(CN)C2: < 3.30
CNCC12CC3(C)CC1CC3(C)C2: < 3.70
c1ccc(CNC23CC4CC(CC2C4)C3)cc1: < 3.70
COc1ccccc1CNC12CC3CC(CC1C3)C2: < 3.30
CN(C)CC12CC3CC(CC1C3)C2: < 3.70
Fc1ccc(CNC23CC4CC(CC2C4)C3)cc1: < 3.70
CN(Cc1ccccc1)CC12CC3CC(CC1C3)C2: < 3.30
c1ccc(CNCC23CC4CC(CC2C4)C3)cc1: < 3.30
CN(C)C12CC3(C)CC1CC3(C)C2: 3.73
CN(Cc1ccccc1)C12CC3CC(CC1C3)C2: < 3.30
CC12CC3CC1(C)CC3(CN1CCCCC1)C2: < 3.70
CC12CC3CC1(C)CC3(CNC(=N)N)C2: 3.98
c1csc(CNC23CC4CC(CC2C4)C3)c1: 3.42

###

Below is a list of entries, each paired with its recorded pIC50 value.
Biological target: Glutamate NMDA receptor
Test: Antagonist activity at NMDA receptor in cerebellar granule neurons assessed as inhibition of NMDA-induced increase in intracellular calcium concentration by fluorometric assay
Assay type: functional, cell-based
pIC50: −log10 of the molar value.
quantity kind: pIC50

NC12CC3CC(CC1C3)C2: 4.04
CC12CC3CC1(C)CC3(CNCc1ccccc1)C2: 4.33
CN(C)C12CC3CC(CC1C3)C2: 3.76
CC12CC3CC1(C)CC3(NCc1ccccc1)C2: 4.15
CN(Cc1ccccc1)C12CC3CC(CC1C3)C2: 4.44
NC(N)=NCC12CC3CC(CC1C3)C2: 4.60
CNC12CC3(C)CC1CC3(C)C2: 4.46
CN(C)C12CC3(C)CC1CC3(C)C2: 3.82
c1csc(CNC23CC4CC(CC2C4)C3)c1: 4.77
CNCC12CC3CC(CC1C3)C2: 4.15
c1ccc(CNCC23CC4CC(CC2C4)C3)cc1: 3.86

###

Biological target: Glutamate NMDA receptor
Test: Antagonist activity at NMDA receptor in cerebellar granule neurons assessed as inhibition of glutamate-induced increase in intracellular calcium concentration by fluorometric assay
Assay type: functional, cell-based
Below is a list of entries, each paired with its recorded IC50 value.
quantity kind: IC50

C1CCN(C23CC4CC(CC2C4)C3)CC1: > 500 µM
COc1cccc(CNC23CC4CC(CC2C4)C3)c1: > 500 µM
CC12CC3CC1(C)CC3(NCc1ccccc1)C2: 143 µM
COc1ccc(CNC23CC4CC(CC2C4)C3)cc1: > 200 µM
NC12CC3CC(CC1C3)C2: > 500 µM
CC12CC3CC1(C)CC3(NCc1cccs1)C2: 204 µM
CN(C)CC12CC3(C)CC1CC3(C)C2: > 200 µM
